Recorded pKd, one value per entry.
Target: T1, human GREM1 (hGREM1-His; SEQ ID NO: 595) (human, UniProt O60565 25-184)
T1 construct: also called biotin-hGREM1-His; recombinant human GREM1 protein
T1 sequence: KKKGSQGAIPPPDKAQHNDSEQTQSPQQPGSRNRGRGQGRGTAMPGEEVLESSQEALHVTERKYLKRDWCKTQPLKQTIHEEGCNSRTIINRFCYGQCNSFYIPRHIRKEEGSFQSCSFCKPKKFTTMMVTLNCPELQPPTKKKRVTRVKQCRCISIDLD
Test: SPR, Biacore T200, 25 C, mAb captured, hGREM1-His injected;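 note: Heparin-supplemented HBS-EP+ used as running buffer, association and dissociation phases followed, Kd computed as koff divided by kon and half-life derived from koff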
Just the number, please; pKd means minus log10 of the concentration in mol/L.

Below, each entry is followed by its recorded pKd result.
binder	observedMeasurement
H4H6251P (antibody, human IgG4, V domains shown, H4H prefix = human IgG4 Fc) VH: QVQLVESGGGVVQPGKSLRLSCAASGFTFSRYGMHWVRQAPGKGLEWVAVIWYDGSNKYYADSVKGRFTISRDNSKNTLYLQMNSLRADDTAMYYCARDDYGDSPGFDFWGQGTLVTVSS VL: EIVMTQSPATLSVSPGERATLSCRASQSVSSNLAWYQQKPGQAPRLLIYDASTRATGIPARFSGTGSGTEFTLTISSLQSEDFALYYCQQYDDWPPWTFGQGTKVEIK	7.64
H4H2892N (antibody, human IgG4, V domains shown, H4H prefix = human IgG4 Fc) VH: QVQLVESGGGVVQPGRSLRLSCAASGFTFSSYGIHWVRQAPGKGLEWVAILWYDGSNKYYADSVKGRFTISRDNSKTTLYLQMNSLRAEDTAVYYCARENYNDLNFDLWGRGTLVTVSS VL: DIQLTQSPSFLSASVGDRVTITCWASQGISSYLAWYQHKPGKAPKLLIYAASTLQSGVPSRFSGSGSGIEFTLTISSLQPEDFATYYCQQLKSYPPWTFGQGTKVEIR	8.91
H4H6248P (antibody, human IgG4, V domains shown, H4H prefix = human IgG4 Fc) VH: QVQLVESGGGVVQPGRSLRLSCAASGFTFSNYGMHWVRQVPGKGLEWVAVIWYDGSNKYYADSVKGRFTISRDNSKNTLYLQMNSVRAEDTAVYYCARDDYGDSPGFDYWGQGTLVTVSS VL: EIVMTQSPATLSVSPGERATLSCRASQSVSSSLAWYQQKPGQAPRLLIYDASTRATGIPARFSGSGSGTEFTLTISGLQSEDFAVYYCQQYNNWPPWTFGQGTKVEIK	8.81

Entry H2aM2901N (antibody, mouse IgG2, V domains shown, H2M prefix = mouse IgG2 Fc (here H2aM); also called H2M2901N) VH: EVQLVESGGGLVKPGGSLRLSCAASGFTFSYYSMIWVRQAPGKGLEWVSSISSSSSYIYYADSVKGRFTISRDNAKKSMYLQMNSLRAEDTAVYYCARGSGYPDYWGQGTLVTVSS VL: DIQMTQSPSSLSASVGDRVTITCRASQGINNYLAWYQQKPGKVPKLLIYAASTLRSGVPSRFSGSGSGTDFTLTISSLQPEDVATYYCQKYNSAPFTFGPGTKVDIK : reported pKd = ?
8.06

Another binder to check: H4H6269P (antibody, human IgG4, V domains shown, H4H prefix = human IgG4 Fc) VH: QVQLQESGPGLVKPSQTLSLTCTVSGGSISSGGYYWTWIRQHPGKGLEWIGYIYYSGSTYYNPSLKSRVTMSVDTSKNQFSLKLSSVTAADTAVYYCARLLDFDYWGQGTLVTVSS VL: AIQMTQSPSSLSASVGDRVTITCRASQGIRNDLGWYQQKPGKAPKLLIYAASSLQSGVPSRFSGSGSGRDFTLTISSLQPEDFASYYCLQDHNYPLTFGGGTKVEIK
9.20
